Target: T1, his-tagged B7-H3 (UniProt Q5ZPR3-2 29-245, limits assumed)
T1 construct: also called CD276; not shown: His tag
T1 sequence (looked up): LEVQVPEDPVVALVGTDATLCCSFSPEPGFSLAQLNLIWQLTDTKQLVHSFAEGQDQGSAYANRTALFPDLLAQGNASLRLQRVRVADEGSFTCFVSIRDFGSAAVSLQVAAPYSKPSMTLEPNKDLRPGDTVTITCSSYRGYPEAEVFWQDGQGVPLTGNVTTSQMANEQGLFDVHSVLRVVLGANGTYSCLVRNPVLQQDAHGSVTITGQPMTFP
Experiment: SPR, Carterra LSA; binder captured by anti-human Fc, his-tagged B7-H3 injected
Protocol: Binding affinities of anti-B7-H3 antibodies to B7-H3 were measured by Surface Plasmon Resonance (SPR) on a Carterra LSA instrument. Goat anti-human Fc antibody was amine coupled to a HC30M chip. ScFv-Fc supernatants were diluted 30-fold with HBSTE and were captured by the anti-human Fc coupled HC30M chip. A 1:2 dilution series of his-tagged B7-H3, starting at 400 nM, was injected onto the chip for binding. Data was analyzed using the Carterra TM Kinetics software.
Parameter log10 of kon: see the listing below.
Recall that a logarithmic scale is used here: each number is log10 of kon in M⁻¹ s⁻¹.

Below are worked cases with known answers.
binder="40511p1.1.C3 scFv-Fc (scFv, V domains shown) VH: DVQLVESGGGVVRPGGSLRLSCAASGFTFRIYGMTWVRQAPGEGLEWVSTISGSGNSTYYADSVKGRFTISRDNSKNTLYLQMNSLRAEDTAVYYCAKTWNNYRFFDYWGLGTLVTVSS VL: EIVLTQSPGTLSLSPGERATLSCRASQPINSSYLAWYQQKPGQAPRLLIYAASSRATDIPDRFSGSGSGTDFTLTISSLQSEDFAVYYCQQYYDWPQFTFGGGTKVEIK" reading=5.61
binder="40511p1.1.H5 scFv-Fc (scFv, V domains shown, Tested as scFv-Fc supernatant) VH: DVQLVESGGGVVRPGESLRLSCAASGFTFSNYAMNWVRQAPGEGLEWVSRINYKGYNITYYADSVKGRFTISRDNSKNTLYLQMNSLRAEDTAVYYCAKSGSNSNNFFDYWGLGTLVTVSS VL: EIVLTQSPGTLSLSPGERATLSCRASQSIRSDLAWYQQKPGQAPRLLIYGAASRATGIPARFSGSGSGTEFTLTISSLQSGDFAVYYCQQYNSWPPLTFGGGTKVEIK" reading=4.01
binder="40579p1.E5 scFv-Fc (scFv, V domains shown) VH: EVQLLESGGGLVQPGGSLRLSCAASGFTFSDDWMTWVRQAPGKGLEWVSAINWNGNSTHYADSVKGRFTVSRDNSKNTLYLQMNSLRAEDTAVYYCAKSRTTYYSSMDVWGQGTTVTVSS VL: EIVLTQSPGTLSLSPGERATLSCRASQTVGSYLAWYQQKPGQAPRLLIYGASSRATGIPARFSGSGSGTDFTLTISSLQSEDFAVYYCQHYYDWPPYSFGGGTKVEIK" reading=5.69
binder="40579p1.G1 scFv-Fc (scFv, V domains shown, Tested as scFv-Fc supernatant) VH: EVQLLESGGGLVQPGGSLRLSCAASGFNFSSYWMSWVRQAPGKGLEWVSGISISYGGNAYYADSVKGRFTVSRDNSKNTLYLQMNSLRAEDTAVYYCGRDRSPYQYRSMDVWGQGTTVTVSS VL: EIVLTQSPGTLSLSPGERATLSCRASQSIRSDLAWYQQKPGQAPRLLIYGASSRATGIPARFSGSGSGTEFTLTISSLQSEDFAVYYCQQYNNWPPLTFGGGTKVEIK" reading=5.41

QUERY: Recorded log10 of kon for 40633p1.2.C3 scFv-Fc (scFv, V domains shown, Tested as scFv-Fc supernatant) VH: EVQLLESGGGLVQPGGSLRLSCAASGFTVSYYGMSWVRQAPGKGLEWVSAIKQDGSEKYYADSVKGRFTISRDNSKNTLYLQMNSLRAEDTAVYYCARHWNDYSNAMNVWEQGTTVTVSS VL: QSVLTQPPSASGTPGQRVTISCSGSNSNVGGNYVSWYQQLPGTAPKLLIYRNSQRPSGVPDRFSGSKSGTSASLAISGLQSEDEAVYYCASWDASLNGWVFGGGTKLTVL , please?
RESULT: 4.53

QUERY: Recorded log10 of kon for 40579p1.C2 scFv-Fc (scFv, V domains shown, Tested as scFv-Fc supernatant) VH: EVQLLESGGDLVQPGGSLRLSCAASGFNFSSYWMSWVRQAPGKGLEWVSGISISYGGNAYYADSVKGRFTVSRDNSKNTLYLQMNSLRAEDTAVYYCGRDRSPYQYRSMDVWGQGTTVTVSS VL: EIVLTQSPATLSVSPGERATFSCRASQTIGNKLAWYQQKPGQAPRLLIFSASTRATDIPDRFSGSGSGTDFTLTISSLQSEDFAVYYCQQYNNWPPLTFGGGTKVEIK , please?
RESULT: 5.66

QUERY: Recorded log10 of kon for 40633p1.2.D11 scFv-Fc (scFv, V domains shown, Tested as scFv-Fc supernatant) VH: EVQLESGGGLVQPGGSLRLSCAASGFTVSYYGMSWVRQAPGKGLEWVSAIKQDGSEKYYADSVKGRFTISRDNSKNTLYLQMNSLRAEDTAVYYCARHWNDYSNAMNVWGQGTTVTVSS VL: QSVLTQPPSASGTPGQRVTISCSGSTSNIAIDFVNWYQQLPGTAPKLLIYTIDQRPSGVPDRFSGSKSGTSASLAISGLQSEDEAVYYCASWDASLNGWVFGRGTKLTVL , please?
RESULT: 5.38
